biological target: PDGFRβ (purified cytoplasmic domain PDGFR-b protein) (Homo sapiens (Human)); assay: PDGFRβ Kinase Assay; assay type: biochemical; details: 36 μM ATP, poly-Glu-Tyr (4:1) substrate, ELISA read-out; read-out: PDGFRβ Enzyme Assay (IC50 nM)
Sequence (P09619 554-1106): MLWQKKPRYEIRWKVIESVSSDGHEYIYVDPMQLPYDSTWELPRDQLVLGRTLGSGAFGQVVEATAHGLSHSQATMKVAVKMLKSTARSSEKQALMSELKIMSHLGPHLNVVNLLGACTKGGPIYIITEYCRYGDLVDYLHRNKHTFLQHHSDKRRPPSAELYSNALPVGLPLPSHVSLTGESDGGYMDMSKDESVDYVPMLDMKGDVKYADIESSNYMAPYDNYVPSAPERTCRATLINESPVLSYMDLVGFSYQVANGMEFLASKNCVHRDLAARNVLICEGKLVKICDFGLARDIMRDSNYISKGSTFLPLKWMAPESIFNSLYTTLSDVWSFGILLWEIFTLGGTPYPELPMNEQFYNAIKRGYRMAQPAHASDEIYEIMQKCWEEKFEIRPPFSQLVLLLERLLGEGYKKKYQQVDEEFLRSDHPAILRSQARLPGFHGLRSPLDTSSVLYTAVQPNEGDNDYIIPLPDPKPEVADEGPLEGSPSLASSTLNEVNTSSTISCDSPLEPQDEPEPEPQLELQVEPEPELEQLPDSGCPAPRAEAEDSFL
experimental.readout: IC50 (nM)
Quick note: give the figure in nM, leave out the unit.

Ask: Provide the reported IC50 (system: PDGFRβ (purified cytoplasmic domain PDGFR-b protein) (Homo sapiens (Human))) for COc1cccc(NC(=O)c2cccc(C#Cc3cc(C(=O)N=S4(=O)CCOCC4)cnc3N)c2)c1
Reply: 19

Ask: Provide the reported IC50 (system: PDGFRβ (purified cytoplasmic domain PDGFR-b protein) (Homo sapiens (Human))) for CC(C)(C)c1cc(NC(=O)c2cccc(C#Cc3cc(C(=O)N=S4(=O)CCOCC4)cnc3N)c2)no1
Reply: 10

Ask: Provide the reported IC50 (system: PDGFRβ (purified cytoplasmic domain PDGFR-b protein) (Homo sapiens (Human))) for Cc1ccc(F)c(C(=O)Nc2cccc(C#Cc3cc(C(=O)N=S4(=O)CCNCC4)cnc3N)c2)c1
Reply: 7

Ask: Provide the reported IC50 (system: PDGFRβ (purified cytoplasmic domain PDGFR-b protein) (Homo sapiens (Human))) for Cc1ccoc1C(=O)Nc1cccc(C#Cc2cc(C(=O)N=S3(=O)CCOCC3)cnc2N)c1
Reply: 51

Ask: Provide the reported IC50 (system: PDGFRβ (purified cytoplasmic domain PDGFR-b protein) (Homo sapiens (Human))) for Cc1ccc(F)c(C(=O)Nc2cccc(C#Cc3cc(C(=O)N=S4(=O)CCN(C(N)=O)CC4)cnc3N)c2)c1
Reply: 7

Ask: Provide the reported IC50 (system: PDGFRβ (purified cytoplasmic domain PDGFR-b protein) (Homo sapiens (Human))) for Cc1ccc(F)c(C(=O)Nc2cccc(C#Cc3cc(C(=O)N=S4(=O)CCOCC4)cnc3N)c2)c1
Reply: 24

Ask: Provide the reported IC50 (system: PDGFRβ (purified cytoplasmic domain PDGFR-b protein) (Homo sapiens (Human))) for Cc1ccoc1C(=O)Nc1cccc(C#Cc2cncc(C(=O)N=S3(=O)CCOCC3)c2)c1
Reply: 23

Ask: Provide the reported IC50 (system: PDGFRβ (purified cytoplasmic domain PDGFR-b protein) (Homo sapiens (Human))) for Nc1ncc(C(=O)N=S2(=O)CCOCC2)cc1C#Cc1cccc(C(=O)Nc2ccc(Cl)c(C(F)(F)F)c2)c1
Reply: 13

###

Molecular target: PDGFRβ (Homo sapiens (Human), UniProt P09619)
Sequence (P09619 33-1106): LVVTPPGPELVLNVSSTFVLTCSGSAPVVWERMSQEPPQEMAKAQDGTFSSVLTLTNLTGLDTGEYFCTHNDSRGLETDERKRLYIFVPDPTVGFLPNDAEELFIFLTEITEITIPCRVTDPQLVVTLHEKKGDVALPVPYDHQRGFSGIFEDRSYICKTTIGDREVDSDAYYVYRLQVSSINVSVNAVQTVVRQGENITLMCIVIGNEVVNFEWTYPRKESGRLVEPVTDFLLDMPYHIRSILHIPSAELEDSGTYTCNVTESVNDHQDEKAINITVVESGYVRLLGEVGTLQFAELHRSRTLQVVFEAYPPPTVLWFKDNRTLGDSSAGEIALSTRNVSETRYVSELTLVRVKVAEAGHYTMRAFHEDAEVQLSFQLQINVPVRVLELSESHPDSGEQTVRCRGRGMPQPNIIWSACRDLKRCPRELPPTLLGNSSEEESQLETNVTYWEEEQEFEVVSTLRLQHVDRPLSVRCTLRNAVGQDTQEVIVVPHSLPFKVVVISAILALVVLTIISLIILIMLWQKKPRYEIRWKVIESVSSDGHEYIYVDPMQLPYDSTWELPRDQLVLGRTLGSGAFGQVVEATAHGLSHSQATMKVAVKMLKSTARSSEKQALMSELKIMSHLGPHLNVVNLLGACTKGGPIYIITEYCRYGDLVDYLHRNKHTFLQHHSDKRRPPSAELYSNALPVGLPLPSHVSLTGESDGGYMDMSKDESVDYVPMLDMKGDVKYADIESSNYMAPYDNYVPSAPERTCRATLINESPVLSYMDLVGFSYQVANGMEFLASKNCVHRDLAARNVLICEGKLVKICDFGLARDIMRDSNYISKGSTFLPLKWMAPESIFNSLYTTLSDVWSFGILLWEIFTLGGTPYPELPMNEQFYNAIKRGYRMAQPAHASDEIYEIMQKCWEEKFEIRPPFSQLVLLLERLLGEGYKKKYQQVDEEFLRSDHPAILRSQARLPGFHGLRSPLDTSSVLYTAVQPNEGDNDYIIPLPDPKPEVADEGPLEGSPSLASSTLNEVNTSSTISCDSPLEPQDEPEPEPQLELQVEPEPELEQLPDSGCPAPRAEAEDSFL
Assay: PDGFRβ Cellular Assay (FLIPR, PDGF-induced intracellular calcium in NHDF-Ad)
Format: cell-based
Details: PDGF-BB stimulation (30 ng/mL), Fluo-4 FLIPR
Description: Automated FLIPR (Fluorometric Imaging Plate Reader) technology was used to screen for inhibitors of PDGF-induced increases in intracellular calcium levels in fluorescent dye loaded endothelial cells. […] Changes in fluorescence at 516 nm were measured simultaneously in all 384 wells using a cooled CCD camera. Data were generated by determining max-min fluorescence levels for unstimulated, stimulated, and drug treated samples. […]
experimental.readout: IC50
Field: value (include unit after the number)

Ask: Entry Cc1ccc(F)c(NC(=O)c2cccc(C#Cc3cc(C(=O)N=S4(=O)CCOCC4)cnc3N)c2)c1 needs its IC50 filled in; supply it.
Reply: 17 nM

Ask: Entry Cc1ccoc1C(=O)Nc1cccc(C#Cc2cncc(C(=O)N=S3(=O)CCOCC3)c2)c1 needs its IC50 filled in; supply it.
Reply: 19 nM

Ask: Entry Cc1ccoc1C(=O)Nc1cccc(C#Cc2cc(C(=O)N=S3(=O)CCOCC3)cnc2N)c1 needs its IC50 filled in; supply it.
Reply: 31 nM
